test: basal RPMI8226 mitochondrial membrane potential changes, profiling panel, cell-based, JC-1 fluorescence, 24 h, 100 nL compound (AID 1169); conditions: RPMI8226 myeloma, JC-1 mitochondrial potential fluorescence, higher = more signal; further: test concentration not given here
Task for the reader: assign each of the following compounds its reported z-score.
Numbers only.

Solved cases (3 shown):
O=C1NC(=O)C2C1C=CC(C(O)c1ccccn1)N2Nc1ccc(Cl)cc1Cl (stereo not drawn) : -0.05
O=C1O[C@H](c2ccccc2)[C@H](c2ccccc2)N2[C@H]1[C@@H](C(=O)N1CCCCCCC1)[C@]1(C(=O)Nc3ccc(C#CC4(O)CCCCCC4)cc31)[C@H]2c1ccccc1OCCO : -0.74
COCCOC(=O)N1C(=O)[C@@]2(c3ccccc31)[C@H](c1ccccc1OCCO)N1[C@H](c3ccccc3)[C@H](c3ccccc3)OC(=O)[C@H]1[C@@H]2C(N)=O : -1.15

Would you be so kind as to report z-score for each listed record?
1. C=C(C(=O)CC[C@H](OC(=O)c1ccccc1-c1ccccc1C(=O)O)c1ccccc1OCCO)C(C)C
2. COCCOC(=O)N1C(=O)[C@@]2(c3cc(C#CCNC(N)=O)ccc31)[C@H](c1ccc(O)cc1)N1[C@H](c3ccccc3)[C@H](c3ccccc3)OC(=O)[C@H]1[C@@H]2C(N)=O
3. CCOC(=O)C1=C[C@@H](c2ccccc2)N(S(=O)(=O)c2ccc(C)cc2)[C@H]1c1ccccc1
4. O=C1O[C@H](c2ccccc2)[C@H](c2ccccc2)N2[C@H]1[C@@H](C(=O)O)[C@]1(C(=O)Nc3ccc(C#CC4(O)CCCCCC4)cc31)[C@H]2c1ccc(O)cc1
5. COCCOC(=O)N1C(=O)[C@@]2(c3cc(C#CCCO)ccc31)[C@H](c1ccccc1OCCO)N1[C@H](c3ccccc3)[C@H](c3ccccc3)OC(=O)[C@H]1[C@@H]2C(=O)N1CCCCCCC1
6. C=CCC(OC(C)=O)[C@@H]1[C@@H](N(Cc2ccc(-c3ccccc3)cc2)C(=O)Cc2ccc(F)cc2)c2cc(OCCCO)ccc2N1C(=O)Cc1ccc2ccccc2c1 (stereo partly drawn)

**Result**
-0.636
-0.932
-0.368
-0.0905
-0.155
-0.909

Numbers sourced from PubChem BioAssay.
